These data points were gathered from patent US20250195521A1.

target: KRAS G12S (Homo sapiens (Human), UniProt P01116+P62937, G12S); assay: Ras-Raf disruption/FRET/MOA assay (BRAF RBD, Cyclophilin A); type: biochemical; conditions: read-out: KRAS G12S FRET IC50
Sequence (P01116 other isoform, or with tags, fused parts or gaps G12S, one chain of several): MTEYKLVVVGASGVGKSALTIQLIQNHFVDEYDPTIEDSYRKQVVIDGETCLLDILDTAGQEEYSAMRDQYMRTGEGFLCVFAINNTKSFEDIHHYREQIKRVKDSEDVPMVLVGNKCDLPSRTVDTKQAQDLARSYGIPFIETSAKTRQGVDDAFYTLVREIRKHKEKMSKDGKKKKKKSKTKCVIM
pIC50: −log10 of the molar value.
PROPERTY_LABEL: pIC50

Ask: Item under review: CCn1c(-c2cccnc2[C@H](C)OC)c2c3cc(ccc31)-c1csc(n1)C[C@H](NC(=O)[C@H](C(C)C)N(C)S(=O)(=O)N1CC(OC)C1)C(=O)N1CCC[C@H](N1)C(=O)OCC(C)(C)C2 [Compound A322] . Reported pIC50?
Reply: 5.00 to 6.00

Ask: Another: CCn1c(-c2cnccc2COC)c2c3cc(ccc31)-c1cc(O)cc(c1)C[C@H](NC(=O)[C@H](C(C)C)N(C)C(=O)[C@H]1CCN(C[C@@H](C)O)C1)C(=O)N1CCC[C@H](N1)C(=O)OCC(C)(C)C2 [Compound A31]
Reply: 6.00 to 7.00

Ask: Another: CCn1c(-c2cccnc2[C@H](C)OC)c2c3cc(ccc31)-c1cc(O)cc(c1)C[C@H](NC(=O)[C@H](C(C)C)N(C)C(=O)[C@H]1CCN(C(=O)[C@H]3CCCN3C)C1)C(=O)N1CCC[C@H](N1)C(=O)OCC(C)(C)C2 [Compound A371]
Reply: 7.00 to 8.00

----------
molecular target: KRAS G13D (Homo sapiens (Human), UniProt P01116+P62937, G13D); test: Ras-Raf disruption/FRET/MOA assay (BRAF RBD, Cyclophilin A); format: biochemical; conditions: read-out: KRAS G13D FRET data IC50
Sequence (P01116 other isoform, or with tags, fused parts or gaps G13D): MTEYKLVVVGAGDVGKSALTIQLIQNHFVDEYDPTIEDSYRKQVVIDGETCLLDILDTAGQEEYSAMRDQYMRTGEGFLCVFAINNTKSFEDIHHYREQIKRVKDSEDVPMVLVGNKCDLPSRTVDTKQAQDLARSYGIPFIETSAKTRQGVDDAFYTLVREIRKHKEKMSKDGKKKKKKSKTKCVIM
Sequence (P62937 whole entry): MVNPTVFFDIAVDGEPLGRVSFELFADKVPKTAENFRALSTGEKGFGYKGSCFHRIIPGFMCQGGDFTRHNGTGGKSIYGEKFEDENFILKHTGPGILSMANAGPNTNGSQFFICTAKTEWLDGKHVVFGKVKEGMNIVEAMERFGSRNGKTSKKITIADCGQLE
Would you mind telling me the reported IC50 of each entry?

Ask: Item CCn1c(-c2cccnc2[C@H](C)OC)c2c3cc(ccc31)-c1csc(n1)C[C@H](NC(=O)N1CCOCC1)C(=O)N1CCC[C@H](N1)C(=O)OCC(C)(C)C2 with KRAS G13D (Homo sapiens (Human), UniProt P01116+P62937, G13D) - IC50?
Reply: 0.1 to 1 µM

Ask: Another: CCn1c(-c2cccnc2[C@H](C)OC)c2c3cc(ccc31)-c1cc(O)cc(c1)C[C@H](NC(=O)C(=C(C)C)N(C)C(C)=O)C(=O)N1CCC[C@H](N1)C(=O)OCC(C)(C)C2
Reply: 1 to 10 µM

Ask: Another: CCn1c(-c2cccnc2[C@H](C)OC)c2c3cc(ccc31)-c1csc(n1)[C@@H](OC)[C@H](NC(=O)[C@H](C(C)C)N(C)C(=O)N(C)C)C(=O)N1CCC[C@H](N1)C(=O)OCC(C)(C)C2
Reply: 0.1 to 1 µM

Ask: Another: CCn1c(-c2cccnc2[C@H](C)OC)c2c3cc(ccc31)-c1csc(n1)C[C@H](NC(=O)[C@H](C(C)C)N(C)C(=O)N1[C@H](C)COC[C@H]1C)C(=O)N1CCC[C@H](N1)C(=O)OCC(C)(C)C2
Reply: 0.01 to 0.1 µM

----------
biological target: KRAS G12V (Homo sapiens (Human), UniProt P01116+P62937, G12V); assay: Ras-Raf disruption/FRET/MOA assay (BRAF RBD, Cyclophilin A); assay type: biochemical; details: read-out: KRAS G12V FRET IC50
Sequence (P01116 other isoform, or with tags, fused parts or gaps G12V, one chain of several): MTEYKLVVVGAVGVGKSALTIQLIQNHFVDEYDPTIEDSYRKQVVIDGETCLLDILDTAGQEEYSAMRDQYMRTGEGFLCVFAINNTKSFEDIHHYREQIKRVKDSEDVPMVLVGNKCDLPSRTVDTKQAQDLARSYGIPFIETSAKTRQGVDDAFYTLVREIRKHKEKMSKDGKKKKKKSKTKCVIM
Would you mind telling me the reported IC50 of each entry?

Ask: Item under review: CCn1c(-c2cccnc2[C@H](C)OC)c2c3cc(ccc31)-c1cc(O)cc(c1)C[C@H](NC(=O)[C@H](C(C)C)N(C)C(=O)C1CCC3(CCOC3)O1)C(=O)N1CCC[C@H](N1)C(=O)OCC(C)(C)C2 (stereo partly drawn) [Compound A409] . Reported IC50?
Reply: 100 to 1000 nM

Ask: Another: CCn1c(-c2cccnc2[C@H](C)OC)c2c3cc(ccc31)-c1cc(O)cc(c1)C[C@H](NC(=O)[C@H](C(C)C)N(C)C(=O)[C@@H]1CCN(C(=O)[C@]3(C)CCCN3C)C1)C(=O)N1CCC[C@H](N1)C(=O)OCC(C)(C)C2 [Compound A342]
Reply: 10 to 100 nM

Ask: Another: CCn1c(-c2cccnc2[C@H](C)OC)c2c3cc(ccc31)-c1cc(O)cc(c1)C[C@H](NC(=O)[C@H](C(C)C)N(C)C(=O)[C@H]1CC1(C)C)C(=O)N1CCC[C@H](N1)C(=O)OCC(C)(C)C2 [Compound A158]
Reply: 100 to 1000 nM

Ask: Another: CCn1c(-c2cccnc2[C@H](C)OC)c2c3cc(ccc31)-c1csc(n1)C[C@H](NC(=O)[C@H](C(C)C)N(C)C(=O)[C@H]1CCN(C(=O)CN(C)C)C1)C(=O)N1CCC[C@H](N1)C(=O)OCC(C)(C)C2 [Compound A97]
Reply: 1000 to 10000 nM

Ask: Another: CCn1c(-c2cccnc2[C@H](C)OC)c2c3cc(ccc31)-c1cc(O)cc(c1)C[C@H](NC(=O)[C@H](C(C)C)N(C)C(=O)[C@@H]1[C@H]3CC[C@H](C3)[C@@H]1N)C(=O)N1CCC[C@H](N1)C(=O)OCC(C)(C)C2 [Compound A417]
Reply: 1000 to 10000 nM

Ask: Another: CCn1c(-c2cccnc2[C@H](C)OC)c2c3cc(ccc31)-c1csc(n1)C[C@H](NC(=O)[C@H](C(C)C)N(C)C(=O)N1CCN(C)[C@@H](c3ccccc3)C1)C(=O)N1CCC[C@H](N1)C(=O)OCC(C)(C)C2 [Compound A524]
Reply: 1000 to 10000 nM

Ask: Another: CCn1c(-c2cccnc2[C@H](C)OC)c2c3cc(ccc31)-c1cc(O)cc(c1)C[C@H](NC(=O)[C@H](C(C)C)N(C)C(=O)[C@H]1CCN(C(=O)OC3CC3)C1)C(=O)N1CCC[C@H](N1)C(=O)OCC(C)(C)C2 [Compound A202]
Reply: 10 to 100 nM

Ask: Another: CCn1c(-c2cccnc2[C@H](C)OC)c2c3cc(ccc31)-c1csc(n1)C[C@H](NC(=O)C1(F)CC1)C(=O)N1CCC[C@H](N1)C(=O)OCC(C)(C)C2 [Compound A362]
Reply: 100 to 1000 nM

Ask: Another: CCn1c(-c2cccnc2[C@H](C)OC)c2c3cc(ccc31)-c1cc(O)cc(c1)C[C@H](NC(=O)[C@H](C(C)C)N(C)C(=O)[C@H]1CCN(C(=O)C(C)(C)NC)C1)C(=O)N1CCC[C@H](N1)C(=O)OCC(C)(C)C2 [Compound A381]
Reply: 100 to 1000 nM
